// data source = PubChem BioAssay AID1159580

protocol-description: chemical genetic growth profiling, strain panel (AID 1159580);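 further: tested at 20 µM; growth read once vehicle control cultures reached saturation at 30 °C; lower values mean less growth of the strain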
measurement-setup: S. cerevisiae deletion strains, growth OD, locus YPR163C, strain tif3, stronger effect = lower value
The campaign covered roughly 5,500 compounds. About 2,000 (36%) were called active. Not shown: some 18% with an inconclusive outcome. The list shows a part of the results.
Threshold 1: normalized growth strictly smaller gives condition met, otherwise condition not met.

>>> assigned_class("O=C(O[C@@H]1Cc2c(O)cc(O)cc2O[C@@H]1c1ccc(O)c(O)c1)c1cc(O)c(O)c(O)c1")
"condition not met"

Here's the next entry for you.
I wonder whether COC(=O)c1cc(=O)c(O)c2c(O)c(O)ccc2c1 has normalized growth below 1. Can you tell? condition met
